target: Cytochrome P450 2C9 (Homo sapiens) (UniProt P11712); assay: Cytochrome panel assay with activity outcomes; settings: recombinant CYP, pro-luciferin dealkylation, luminescence, p450-cyp2c9; series mostly up to 57.1 µM
Sequence (P11712 whole entry, looked up): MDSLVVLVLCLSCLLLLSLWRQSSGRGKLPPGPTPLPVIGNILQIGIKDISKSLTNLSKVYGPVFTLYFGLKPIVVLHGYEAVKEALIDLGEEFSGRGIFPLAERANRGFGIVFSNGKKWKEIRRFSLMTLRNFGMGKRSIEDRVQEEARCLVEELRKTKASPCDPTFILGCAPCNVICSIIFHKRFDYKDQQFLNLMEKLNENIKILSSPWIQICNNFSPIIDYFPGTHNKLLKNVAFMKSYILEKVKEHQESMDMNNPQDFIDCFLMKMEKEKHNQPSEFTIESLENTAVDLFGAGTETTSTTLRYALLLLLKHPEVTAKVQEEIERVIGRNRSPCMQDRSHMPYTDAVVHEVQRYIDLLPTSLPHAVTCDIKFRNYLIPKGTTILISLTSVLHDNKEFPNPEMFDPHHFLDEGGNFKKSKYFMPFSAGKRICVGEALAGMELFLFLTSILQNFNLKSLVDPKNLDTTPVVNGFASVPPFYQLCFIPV
Hit rate of the full screen: of about 16,000 compounds, about 4,000 (25%) were called active. Another 26% or so got no clear call; they are omitted. Not all results are given here.
recordedMetric: AC50

C[C@@H](C(=O)Nc1ccc2ccccc2c1)[C@H]1C[C@]1(C)[C@H](NP(=O)(c1ccccc1)c1ccccc1)c1ccccc1	3.16 µM (active)
COCC(=O)N1CCC2(CCCN(c3cccc(-c4ccccc4)c3)C2)CC1	25.1 µM (active)
CNc1cc(OC)c(C(=O)N[C@@H]2CCN(Cc3ccccc3)[C@H]2C)cc1Cl	inactive
CN(c1ccccc1)c1nc(-n2ccnc2)nc(-n2ccnc2)n1	0.282 µM (active)
NCCSSCCN	inactive
COCC(=O)N1CCC2(CC1)CCN(c1cccc(-c3ccccc3)c1)CC2	inactive
O=C(Nc1ccc2ccccc2c1)c1onc2c1CCCC2	inactive
C[C@@H](C(=O)Nc1ccc2ccccc2c1)[C@@H]1C[C@@]1(C)[C@@H](NS(=O)(=O)c1ccc(-c2ccccc2)cc1)c1ccccc1	inactive
Cc1ccnc(N)c1	inactive
O=C1NCCc2c1[nH]c1ccccc21	inactive
CC(C)(C)n1nc2c(c1NC(=O)c1ccc(S(=O)(=O)N3CCCCC3)cc1)CS(=O)C2 (configuration not stated)	inactive
CN[C@]1(C)[C@@H]2CC[C@@H](C2)C1(C)C	inactive
COCC(=O)N1CCC2(CC1)CN(C(=O)Nc1ccccc1)C2	1.58 µM (active)
COc1ccc(NC(=O)N2CC[C@@]3(CCCN(S(C)(=O)=O)C3)C2)cc1	inactive
CCOc1ccccc1NC(=O)C(=O)NCC1CCCN1CC (configuration not stated)	inactive
C[C@@]1(C(NC(=O)Cc2ccc(C(F)(F)F)cc2)c2ccc(-c3ccccc3)cc2)C[C@H]1C1CCCCC1 (some centres not stated)	inactive
OCCNCCCOc1cccc(Cl)c1Cl	inactive
CC(C)n1c(=O)c2c(O)cc(=O)oc2c2ccccc21	inactive
C[C@@H](C(=O)Nc1ccc2ccccc2c1)[C@H]1C[C@]1(C)[C@H](NC(=O)OCc1ccccc1)c1ccccc1	1.58 µM (active)
N[C@H](C(=O)O)c1ccc(C(=O)O)cc1	inactive
CCOc1nc(NC(C)C)nc(NC(C)C)n1	inactive
c1ccc(-c2nc(N3CCCCCC3)nc(-n3ccnc3)n2)cc1	5.01 µM (active)

====

biological target: Cytochrome P450 2C9 (Homo sapiens) (UniProt P11712); assay: Cytochrome panel assay with activity outcomes; conditions: recombinant CYP, pro-luciferin dealkylation, luminescence, p450-cyp2c9; series mostly up to 57.1 µM
The campaign covered roughly 16,000 compounds. About 4,000 (25%) were called active. Inconclusive results (about 26%) are left out. Calls follow the shape of the dose curve; as a rule, active = well fitted curve in the direction sought with a large enough effect; inconclusive = small, poorly fitted or top-dose-only effect, or effect the other way; inactive = no such curve, though single readings can be large or run the other way. Only a sample is shown.
Classes used: active, inactive

CC(=O)c1ccc(N2CCC(c3cc(-c4ccc(Cl)cc4Cl)n[nH]3)CC2)c([N+](=O)[O-])c1	active
COc1ccc2oc(=O)c(NC(=O)C3CCCCC3)cc2c1	inactive
CC1(C)S[C@@H]2[C@H](NC(=O)[C@@H](N)c3ccccc3)C(=O)N2[C@H]1C(=O)O[C@H]1OC(=O)c2ccccc21	inactive
CCOc1ccc(NC(=S)N(Cc2ccc(Cl)cc2)Cc2ccco2)cc1	active
C=CCSc1nnc2c(n1)OC(c1c(C)[nH]n(-c3ccccc3)c1=O)Nc1ccccc1-2 (stereo not given)	active
CCCCNC(=O)C1CCN(Cc2ccccn2)CC1	inactive
CCn1c(SCc2nc3ccccc3[nH]2)nnc1-c1ccc(OC)cc1	active
NC[C@@H]1O[C@H](O[C@@H]2[C@H](O[C@@H]3O[C@H](CO)[C@@H](COC[C@H]4O[C@@H](CN)[C@@H](O)[C@@H](O)[C@@H]4N)[C@@H]3O)[C@@H](O)[C@@H](N)C[C@H]2N)[C@@H](N)[C@H](O)[C@@H]1O	inactive
COCCSc1nnc(NC(=O)C(C)(C)C)s1	inactive
O=C(c1csnn1)N1CCC2(CC1)CCN(c1ccccc1)CC2	inactive
CCn1c(SCc2cccc(C)c2)nnc1-c1ccc(C)cc1	inactive
CCSc1nnc(NC(=O)C(C(F)(F)F)C(F)(F)F)s1	active
COc1ccc2c(c1)OC1=C(C(=O)CCC1)C2C1=C(O)CCCC1=O (stereo not given)	active
CC(=O)c1ccc(N2CCC(c3cc(-c4ccc(Cl)cc4)n[nH]3)CC2)c([N+](=O)[O-])c1	active
O=C1Oc2ccccc2C(=O)/C1=C\N1C(=O)N/C(=C\c2ccccc2O)C1=O	active
O=C(c1csnn1)N1CCC2(CC1)CN(c1cccc(-c3ccccc3)c1)C2	inactive
COc1ccc(-c2cc(C3CCN(c4cc(Cl)nc(N)n4)CC3)[nH]n2)cc1	active
O=C(c1csnn1)N1CCC2(CC1)CN(c1ccccc1)C2	inactive
CCn1c(SCC(=O)N2CCN(S(=O)(=O)c3ccccc3)CC2)nnc1-c1cccs1	inactive
N[C@@H](Cn1cc(F)c(=O)[nH]c1=O)C(=O)O	inactive

====

target: Cytochrome P450 2C9 (Homo sapiens) (UniProt P11712); experiment: Cytochrome panel assay with activity outcomes; settings: recombinant CYP, pro-luciferin dealkylation, luminescence, p450-cyp2c9; series mostly up to 57.1 µM; on activity, negative = inhibition: on the % scale 0 is the no-effect control and ±100 the full control effect
The whole screen tested about 16,000 compounds, of which about 4,000 (25%) were called active. Inconclusive results (about 26%) are left out. A selection follows.
Examples of compounds with documented activity, negative = inhibition follow.
recordedMetric: activity, negative = inhibition

COc1ccccc1CNc1ncncc1-c1cccnc1	-1.61% [at 2.29 µM] (inactive)
NC(=O)c1csc(-c2ccc(CO)o2)n1	6.84% [at 11.4 µM] (inactive)
FC(F)(F)c1ccccc1-c1cncnc1NCCN1CCOCC1	-5.4% [at 2.29 µM] (inactive)
Clc1ccccc1-c1nc(N2CCNCC2)c2ccccc2n1	2.98% [at 2.29 µM] (inactive)
CN(C)C(=O)c1ccc(-c2cncnc2NCCN2CCOCC2)cc1	0.0156% [at 2.29 µM] (inactive)
Cc1ccccc1-c1nc(N(C)Cc2ccco2)c2ccccc2n1	-11% [at 2.29 µM] (inactive)
COc1ccc(CNc2cc(-c3ccoc3)ncn2)c(OC)c1	3.4% [at 2.29 µM] (inactive)
CC(C)(C)OC(=O)[C@H]([C@@H]1N[C@@H](C(=O)O)C(C)(C)S1)N1C(=O)c2ccccc2C1=O	19% [at 11.4 µM] (inactive)
CN(C)C(=O)c1ccc(-c2cncnc2NCc2cccs2)cc1	-0.243% [at 2.29 µM] (inactive)
Cc1cccc(CNc2ncncc2-c2ccc(C(=O)N(C)C)cc2)c1	2.16% [at 2.29 µM] (inactive)
Clc1ccccc1-c1nc(-c2ccncc2)no1	-19.4% [at 11.4 µM] (inactive)
COc1ccccc1CNc1ccnc(-c2ccccc2Cl)n1	-21.6% [at 2.29 µM] (inactive)
CN(C)C(=O)c1ccc(-c2cncnc2-n2ccnc2)cc1	12.6% [at 2.29 µM] (inactive)
c1ccc(CCNCc2ccco2)nc1	0.412% [at 11.4 µM] (inactive)
C/C(CCN1CCCc2nc(C)c(C)cc21)=N\OC[C@@H](O)[C@@H]1O[C@@H]2OC(C)(C)O[C@@H]2[C@H]1O	2.31% [at 11.4 µM] (inactive)
CN(C)c1ccc(-c2cncnc2NCCN2CCOCC2)cc1	1.82% [at 2.29 µM] (inactive)
Cc1nnc(S(=O)(=O)c2ccc(N=Nc3c(N)nc(N)nc3N)cc2)s1	-2.75% [at 11.4 µM] (inactive)
C[C@@]1(CCOCc2ccccc2)NC(=O)NC1=O	-8.7% [at 11.4 µM] (inactive)
CC(=O)OC[C@@H]1O[C@@H](O/N=C2/C[C@@H](O)[C@@H](O)[C@@H]3[C@@H]4C(=O)N(c5cccc(Oc6ccccc6)c5)C(=O)[C@H]4CC[C@@H]23)[C@H](OC(C)=O)[C@H](OC(C)=O)[C@@H]1OC(C)=O	20.1% [at 11.4 µM] (inactive)
N#Cc1cccc(-c2cncnc2-n2ccnc2)c1	12.2% [at 2.29 µM] (inactive)
FC(F)(F)c1ccccc1-c1cc(NCCN2CCOCC2)ncn1	26.8% [at 2.29 µM] (inactive)
Nc1ccc(C(=O)C[C@H](N)C(=O)O)cc1O	-13.6% [at 11.4 µM] (inactive)
C[N@+]1(CCC(=O)c2ccccc2)CC[C@H]2CC[C@H](C2)C1	8.55% [at 11.4 µM] (inactive)
CN(C)Cc1ccccc1-c1cncnc1NCc1cccs1	-10.6% [at 2.29 µM] (inactive)
O=C1[C@H]2[C@H]3[C@H](O)[C@H](O)C/C(=N/OCc4ccccc4)[C@H]3CC[C@@H]2C(=O)N1C[C@@H]1CCCO1	-4.81% [at 11.4 µM] (inactive)
O=C(O)c1ccccc1C(=O)Nc1cc2c(cc1Br)-c1ccccc1C2=O	-5.92% [at 11.4 µM] (inactive)
COc1ccccc1CNc1ncncc1-c1ccccc1Cl	-27.8% [at 2.29 µM] (inactive)
Cc1noc(C)c1-c1ccc2ncnc(Nc3ccc(F)cc3)c2c1	-13.2% [at 2.29 µM] (inactive)
Oc1ccc2ccccc2c1C=NCc1c(O)ccc2ccccc12	-2.74% [at 11.4 µM] (inactive)
Cc1cc(N2CCN(C)CC2)n2nc(-c3ccc(Cl)cc3)nc2n1	6.91% [at 11.4 µM] (inactive)
N/C(=N\O)c1cn([C@@H]2O[C@@H](CO)[C@H](O)[C@@H]2O)c2ncnc(NO)c12	-5.39% [at 11.4 µM] (inactive)
CN(C)c1ccc(-c2ccc3ncnc(N4CCNCC4)c3c2)cc1	6% [at 2.29 µM] (inactive)
CC1CCC(C(=O)O)([C@H](Br)C(=O)O)CC1 (stereo not given in full)	-6.22% [at 11.4 µM] (inactive)
Cn1c(N)c(N=Nc2ccc(S(N)(=O)=O)cc2)c(=O)n(C)c1=O	5.29% [at 11.4 µM] (inactive)
CC(C)c1ccc(/C=C2\C=C(c3ccc4ccccc4c3)OC2=O)cc1	-10% [at 11.4 µM] (inactive)
C[C@@H]1CN2[C@H](c3ccc(Br)cc3)[C@H](C)CC[C@H]2C(=O)O1	-3.17% [at 11.4 µM] (inactive)
CN(C)c1ccc(-c2cncnc2N(C)Cc2ccco2)cc1	-17.3% [at 2.29 µM] (inactive)
O=C1c2ccccc2C(=O)N1CCCSc1ccccc1	-22.7% [at 11.4 µM] (inactive)
Cc1nc2cccc([N+](=O)[O-])c2n1CCCN(C)C	-4.5% [at 11.4 µM] (inactive)
Cc1[nH]n(-c2ccc(S(=O)(=O)O)cc2)c(=O)c1N=Nc1ccccc1	21.2% [at 11.4 µM] (inactive)
CN(C)C(=O)c1ccc(-c2nccc(-n3ccnc3)n2)cc1	17.2% [at 2.29 µM] (inactive)
Cc1cnc(CNc2ccnc(-c3ccccc3C)n2)cn1	11.5% [at 2.29 µM] (inactive)
CC(=O)N[C@@H]1CONC1=O	-5.39% [at 11.4 µM] (inactive)
CCCC[C@@H]1CN2[C@H](c3ccc(Br)cc3)[C@@H](C)CC[C@H]2C(=O)O1	-13.2% [at 11.4 µM] (inactive)
Cc1cnc(CNc2ncncc2-c2ccccc2CN(C)C)cn1	20.8% [at 2.29 µM] (inactive)

Origin of the recorded values: PubChem BioAssay AID1851
